# reported IC50; entries follow
target or system: hNET (Homo sapiens, UniProt P23975)
Sequence (P23975 whole entry): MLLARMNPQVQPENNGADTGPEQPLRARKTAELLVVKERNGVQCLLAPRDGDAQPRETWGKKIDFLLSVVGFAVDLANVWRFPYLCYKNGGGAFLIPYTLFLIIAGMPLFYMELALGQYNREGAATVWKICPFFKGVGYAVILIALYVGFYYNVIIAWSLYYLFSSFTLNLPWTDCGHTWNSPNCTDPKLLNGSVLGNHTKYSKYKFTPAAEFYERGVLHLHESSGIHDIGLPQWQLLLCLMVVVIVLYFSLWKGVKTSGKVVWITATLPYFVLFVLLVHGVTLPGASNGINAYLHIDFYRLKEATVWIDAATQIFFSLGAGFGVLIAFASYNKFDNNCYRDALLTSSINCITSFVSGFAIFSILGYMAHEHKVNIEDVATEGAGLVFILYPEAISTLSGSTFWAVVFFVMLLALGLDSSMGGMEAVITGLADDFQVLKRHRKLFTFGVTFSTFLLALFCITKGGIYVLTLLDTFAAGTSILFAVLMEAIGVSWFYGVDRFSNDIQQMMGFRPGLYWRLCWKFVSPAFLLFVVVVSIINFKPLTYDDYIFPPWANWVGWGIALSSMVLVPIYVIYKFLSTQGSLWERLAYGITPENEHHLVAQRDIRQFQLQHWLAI
experiment description: fluorescence-based norepinephrine reuptake inhibition assay (Tsuruda et al. 2010; data indicated by an asterisk)
Format: cell-based
Parameters: expressed in transfected cells; host or cells: HEK-293
condition details: norepinephrine reuptake inhibition, fluorescence-based assay (values with asterisk); read-out: NET pIC50 (converted)

# annotated cases, reported IC50 shown
- molecule: "Cc1cc(Cl)cc(Cl)c1O[C@H](C1CC1)[C@H]1CCNC1"
  target or system: "hNET (Homo sapiens, UniProt P23975)"
  IC50: "≤ 100 nM"
- molecule: "CC(C)[C@@H](Oc1cccc2ccccc12)[C@H]1CCNC1"
  target or system: "hNET (Homo sapiens, UniProt P23975)"
  IC50: "≤ 10 nM"
- molecule: "CC(C)[C@@H](Oc1cc(F)cc(Cl)c1)[C@@H]1CCNC1"
  target or system: "hNET (Homo sapiens, UniProt P23975)"
  IC50: "≤ 100 nM"
- molecule: "CC[C@@H](Oc1cccc(Cl)c1Cl)[C@H]1CCNC1"
  target or system: "hNET (Homo sapiens, UniProt P23975)"
  IC50: "≤ 10 nM"
- molecule: "Fc1ccc(O[C@@H](C2CC2)[C@H]2CCNC2)c(F)c1Cl"
  target or system: "hNET (Homo sapiens, UniProt P23975)"
  IC50: "≤ 10 nM"

Exercise: Under hNET (Homo sapiens, UniProt P23975): IC50 value of CCC[C@@H](Oc1c(Cl)ccc(Cl)c1Cl)[C@H]1CCNC1 ?
Solution: ≤ 10 nM

Exercise: Under hNET (Homo sapiens, UniProt P23975): IC50 value of CCC[C@H](Oc1ccc(Cl)cc1OC)[C@H]1CCNC1 ?
Solution: ≤ 10 nM

Exercise: Under hNET (Homo sapiens, UniProt P23975): IC50 value of CC[C@H](Oc1c(F)cc(Cl)cc1Cl)[C@H]1CCNC1 ?
Solution: ≤ 10 nM
